Target: Man(a1-2)Man(a1-6)[Man(a1-3)]Man(a1-6)[Man(a1-2)Man(a1-2)Man(a1-3)]Man(b1-4)GlcNAc(b1-4)GlcNAc
Assay: glycan array binding signal (z-score within array); higher = stronger binding
Conditions: glycan notation: IUPAC condensed, linker removed
About 410 targets per protein were measured; listed, in parts, are those with the strongest signals and a random draw of the rest.
Measurement type: glycan array binding signal (z-score)
Number, no unit, nothing else.

INSERT INTO results (binder, obs_value) VALUES
  ('LlpA (Arthrobacter sp) (protein) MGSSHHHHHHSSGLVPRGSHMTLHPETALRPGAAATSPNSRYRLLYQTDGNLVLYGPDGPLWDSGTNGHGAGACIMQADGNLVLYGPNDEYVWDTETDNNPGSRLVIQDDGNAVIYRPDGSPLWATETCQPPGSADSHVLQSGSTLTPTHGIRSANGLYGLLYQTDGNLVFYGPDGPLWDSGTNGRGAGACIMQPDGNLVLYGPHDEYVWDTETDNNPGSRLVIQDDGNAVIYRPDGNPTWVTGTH', 0.31),
  ('Clec12b (Mus musculus), Q149M0 (protein) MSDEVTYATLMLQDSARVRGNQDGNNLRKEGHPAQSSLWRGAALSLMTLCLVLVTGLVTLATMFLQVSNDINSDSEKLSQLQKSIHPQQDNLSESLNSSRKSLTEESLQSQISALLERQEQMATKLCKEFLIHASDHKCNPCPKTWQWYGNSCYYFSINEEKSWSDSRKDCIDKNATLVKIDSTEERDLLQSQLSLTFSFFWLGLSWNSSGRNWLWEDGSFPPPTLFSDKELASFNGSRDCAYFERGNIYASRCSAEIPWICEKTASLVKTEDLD', -0.428),
  ('GALT1 615 (Arabidopsis thaliana), Q8L7F9 (protein) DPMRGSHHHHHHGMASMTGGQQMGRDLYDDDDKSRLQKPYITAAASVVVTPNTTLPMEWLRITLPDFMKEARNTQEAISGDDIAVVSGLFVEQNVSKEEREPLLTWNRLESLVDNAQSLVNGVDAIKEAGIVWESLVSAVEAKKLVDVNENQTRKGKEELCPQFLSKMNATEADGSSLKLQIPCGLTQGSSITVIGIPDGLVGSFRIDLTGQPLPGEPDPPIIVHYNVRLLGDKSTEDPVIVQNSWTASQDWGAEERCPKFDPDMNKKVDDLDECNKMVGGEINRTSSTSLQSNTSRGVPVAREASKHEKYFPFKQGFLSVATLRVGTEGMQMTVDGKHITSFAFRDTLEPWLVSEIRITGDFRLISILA', -0.415),
  ('CVN (Nostoc ellipsosporum), P81180 (protein) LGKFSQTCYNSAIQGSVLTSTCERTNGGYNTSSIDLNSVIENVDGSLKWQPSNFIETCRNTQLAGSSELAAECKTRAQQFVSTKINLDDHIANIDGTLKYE', 6.39);

Query block: Using the record for DGL (Dioclea grandiflora), P08902 (protein) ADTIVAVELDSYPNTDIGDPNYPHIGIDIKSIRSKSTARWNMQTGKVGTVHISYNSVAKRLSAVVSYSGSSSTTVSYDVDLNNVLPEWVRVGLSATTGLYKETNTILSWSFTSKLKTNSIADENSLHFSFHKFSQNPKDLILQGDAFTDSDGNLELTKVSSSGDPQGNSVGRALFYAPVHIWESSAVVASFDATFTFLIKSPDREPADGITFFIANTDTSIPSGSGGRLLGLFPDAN , report its glycan array binding signal (z-score).
Result block: 6.41
